From: patent US20100003228A1

# System: myelin reactive T cells in PBMCs
# assay-explanation: EAA with positivity by Variance Evaluation Method or CPM Variance Method (clinical trials)
# Assay type: cell-based, human
# stated-conditions: clinical trial population, RR-MS or CIS subjects
measured-metric: # of Subjects (frequency of identification)
Answers are plain numbers.

Record excerpt, results attached:
>>> measured("PLPm13: mix of PLP 25 and PLP 26 (chain 1 VRQIFGDYKTTICGKG; chain 2 FGDYKTTICGKGLSAT)")
3
>>> measured("MOGm3: mix of MOG 5 and MOG 6 (chain 1 GDEVELPCRISPGKNA; chain 2 ELPCRISPGKNATGME)")
4
>>> measured("FAVLKLMGRGTKF [PLP67]")
5

Would you be so kind as to report # of Subjects (frequency of identification) for each listed record?
1. PLPm12: mix of PLP 23 and PLP 24 (chain 1 EGFYTTGAVRQIFGDY; chain 2 TTGAVRQIFGDYKTTI)
2. PLPm28: mix of PLP 55 and PLP 56 (chain 1 GKVCGSNLLSICKTAE; chain 2 GSNLLSICKTAEFQMT)
3. MOGm20: mix of MOG 39 and MOG 40 (chain 1 LRGKLRAEIENLHRTF; chain 2 LRAEIENLHRTFDPHF)

[1, 6, 1]

Answer for every listed entry: what is its # of Subjects (frequency of identification)? The entries follow.
1. PLPm11: mix of PLP 21 and PLP 22 (chain 1 LYGALLLAEGFYTTGA; chain 2 LLLAEGFYTTGAVRQI)
2. MOGm2: mix of MOG 3 and MOG 4 (chain 1 RHPIRALVGDEVELPC; chain 2 RALVGDEVELPCRISP)

1. 4
2. 6

###

# Tested on: myelin reactive T cells in PBMCs
# assay-explanation: EAA with positivity by Variance Evaluation Method or CPM Variance Method (clinical trials)
# Type: cell-based, human
# stated-conditions: clinical trial population, RR-MS or CIS subjects
# Source text: The predetermined value may also be calculated using a Variance Evaluation Method as follows: • 1. EAAs may be run on a given patient population (minimum of 120 assays from 120 unique subjects) • 2. […] The Standard Deviation (SD) may be calculated for each peptide • 4. The following for each peptide may be then be calculated: • a. […] The predetermined value may also be evaluated using a Counts per Minute (CPM) Variance Method. […] It may be calculated as follows: • 1. […]
measured-metric: # of Subjects (frequency of identification)
Give bare numbers.

>>> measured("PLPm19: mix of PLP 37 and PLP 38 (chain 1 WLGHPDKFVGITYALT; chain 2 PDKFVGITYALTVVWL)")
11
>>> measured("PLPm25: mix of PLP 49 and PLP 50 (chain 1 TSASIGSLCADARMYG; chain 2 IGSLCADARMYGVLPW)")
3

Would you be so kind as to report # of Subjects (frequency of identification) for each listed record?
1. MOGm6: mix of MOG 11 and MOG 12 (chain 1 RPPFSRVVHLYRNGKD; chain 2 SRVVHLYRNGKDQDGD)
2. PLPm18: mix of PLP 35 and PLP 36 (chain 1 RVCHCLGKWLGHPDKF; chain 2 CLGKWLGHPDKFVGIT)
3. PLPm22: mix of PLP 43 and PLP 44 (chain 1 CSAVPVYIYFNTWTTC; chain 2 PVYIYFNTWTTCQSIA)

1: 4; 2: 10; 3: 2

Provide # of Subjects (frequency of identification) for all items below, preserving their order.
1. MOGm22: mix of MOG 43 and MOG 44 (chain 1 DPHFLRVPCWKITLFV; chain 2 LRVPCWKITLFVIVPV)
2. MOGm23: mix of MOG 45 and MOG 46 (chain 1 CWKITLFVIVPVLGPL; chain 2 TLFVIVPVLGPLVALI)

2
20

###

# Test system: myelin reactive T cells in PBMCs
# assay-explanation: EAA with positivity by Variance Evaluation Method or CPM Variance Method (clinical trials)
# Assay type: cell-based, human
# stated-conditions: clinical trial population, RR-MS or CIS subjects
measured-metric: # of Subjects (frequency of identification)
Give bare numbers.

>>> measured("MOGm21: mix of MOG 41 and MOG 42 (chain 1 IENLHRTFDPHFLRVP; chain 2 HRTFDPHFLRVPCWKI)")
40
>>> measured("MOGm5: mix of MOG 9 and MOG 10 (chain 1 TGMEVGWYRPPFSRVV; chain 2 VGWYRPPFSRVVHLYR)")
8
>>> measured("MOGm19: mix of MOG 37 and MOG 38 (chain 1 VFLCLQYRLRGKLRAE; chain 2 LQYRLRGKLRAEIENL)")
6

Each substance below has a reported value. Please supply its # of Subjects (frequency of identification).
1. PLPm26: mix of PLP 51 and PLP 52 (chain 1 CADARMYGVLPWNAFP; chain 2 RMYGVLPWNAFPGKVC)
2. PLPm17: mix of PLP 33 and PLP 34 (chain 1 QHQAHSLERVCHCLGK; chain 2 HSLERVCHCLGKWLGH)

[28, 14]

###

# Tested on: myelin reactive T cells in PBMCs
# assay-explanation: EAA with positivity by Variance Evaluation Method or CPM Variance Method (clinical trials)
# Assay type: cell-based, human
# stated-conditions: clinical trial population, RR-MS or CIS subjects
Where no end group is shown, it is not given here.
Exercise: state measured # of Subjects (frequency of identification) for each of the substances provided.
One number for each entry.

>>> measured("PLPm6: mix of PLP 11 and PLP 12 (chain 1 TGTEKLIETYFSKNYQ; chain 2 KLIETYFSKNYQDYEY)")
4

Okay, here is my list. What is # of Subjects (frequency of identification) for each of these?
1. PLPm33: mix of PLP 65 and PLP 66 (chain 1 FMIAATYNFAVLKLMG; chain 2 ATYNFAVLKLMGRGTK)
2. MOGm4: mix of MOG 7 and MOG 8 (chain 1 RISPGKNATGMEVGWY; chain 2 GKNATXMEVGWYRPPF; X not resolved here; also: mixture of MOG 7 and MOG 8)

[11, 3]

###

# System: myelin reactive T cells in PBMCs
# assay-explanation: EAA with positivity by Variance Evaluation Method or CPM Variance Method (clinical trials)
# Assay type: cell-based, human
# stated-conditions: clinical trial population, RR-MS or CIS subjects
measured-metric: # of Subjects (frequency of identification)
Give bare numbers.

# example entries with known answers
>>> measured("MOGm7: mix of MOG 13 and MOG 14 (chain 1 HLYRNGKDQDGDQAPE; chain 2 NGKDQDGDQAPEYRGR)")
5
>>> measured("PLPm4: mix of PLP 7 and PLP 8 (chain 1 CFFGVALFCGCGHEAL; chain 2 VALFCGCGHEALTGTE)")
26
>>> measured("PLPm32: mix of PLP 63 and PLP 64 (chain 1 ATLVSLLTFMIAATYN; chain 2 SLLTFMIAATYNFAVL)")
12

Dear colleague, could you send me # of Subjects (frequency of identification) for each of the items below? Thanks.
1. PLPm24: mix of PLP 47 and PLP 48 (chain 1 QSIAFPSKTSASIGSL; chain 2 FPSKTSASIGSLCADA)
2. MOGm24: mix of MOG 47 and MOG 48 (chain 1 IVPVLGPLVALIICYN; chain 2 LGPLVALIICYNWLHR)
3. MOGm26: mix of MOG 51 and MOG 52 (chain 1 WLHRRLAGQFLEELRN; chain 2 RLAGQFLEELRNPF)
4. PLPm27: mix of PLP 53 and PLP 54 (chain 1 VLPWNAFPGKVCGSNL; chain 2 NAFPGKVCGSNLLSIC)

[7, 15, 9, 6]
